# ASSAY SYSTEM: Axl (UniProt P30530)
# Sequence (P30530 26-451 limits assumed): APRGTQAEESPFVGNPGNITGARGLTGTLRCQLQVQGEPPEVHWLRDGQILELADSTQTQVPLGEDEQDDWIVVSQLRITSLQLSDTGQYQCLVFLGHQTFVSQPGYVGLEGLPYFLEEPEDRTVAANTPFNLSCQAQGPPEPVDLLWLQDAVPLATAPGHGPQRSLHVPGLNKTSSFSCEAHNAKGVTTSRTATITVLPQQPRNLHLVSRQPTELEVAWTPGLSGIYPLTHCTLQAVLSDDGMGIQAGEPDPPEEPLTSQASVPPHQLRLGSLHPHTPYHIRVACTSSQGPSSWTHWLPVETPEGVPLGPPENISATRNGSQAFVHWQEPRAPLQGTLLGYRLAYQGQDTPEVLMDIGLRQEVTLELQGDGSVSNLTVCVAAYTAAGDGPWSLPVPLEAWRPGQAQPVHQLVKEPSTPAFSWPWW
# ASSAY NAME: ELISA, 1:9 dilution
Reported values of Affinity ELISA CPE mutant ratio (1:9, pH 6.0/7.4) for individual entries
ATTRIBUTE MEASURED: Affinity ELISA CPE mutant ratio (1:9, pH 6.0/7.4)

{"BINDER": "LC-H091L (antibody, V domains shown) VH: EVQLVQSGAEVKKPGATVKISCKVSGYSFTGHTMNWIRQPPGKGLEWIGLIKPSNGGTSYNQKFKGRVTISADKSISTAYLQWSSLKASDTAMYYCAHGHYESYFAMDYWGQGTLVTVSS VL: DIQMTQSPSSLSASVGDRVTITCKASQDVSSAVAWYQQKPGQAPRLLIYWASTRHTGVPSRFSGSGSGTEFTLTISSLQPDDFATYYCQELFSTPLTFGQGTKVEIK", "MEASURED NUMBER": 2.08}
{"BINDER": "LC-V029G (antibody, V domains shown) VH: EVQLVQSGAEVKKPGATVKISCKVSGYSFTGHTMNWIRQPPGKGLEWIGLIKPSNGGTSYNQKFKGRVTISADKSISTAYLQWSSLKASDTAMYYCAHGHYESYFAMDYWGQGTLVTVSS VL: DIQMTQSPSSLSASVGDRVTITCKASQDGSSAVAWYQQKPGQAPRLLIYWASTRHTGVPSRFSGSGSGTEFTLTISSLQPDDFATYYCQEHFSTPLTFGQGTKVEIK", "MEASURED NUMBER": 1.8}
{"BINDER": "HC-H100W (antibody, V domains shown) VH: EVQLVQSGAEVKKPGATVKISCKVSGYSFTGHTMNWIRQPPGKGLEWIGLIKPSNGGTSYNQKFKGRVTISADKSISTAYLQWSSLKASDTAMYYCAHGWYESYFAMDYWGQGTLVTVSS VL: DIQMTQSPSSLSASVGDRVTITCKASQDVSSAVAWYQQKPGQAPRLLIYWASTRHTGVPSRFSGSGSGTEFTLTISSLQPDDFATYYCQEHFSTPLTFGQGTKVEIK", "MEASURED NUMBER": 5.91}
{"BINDER": "HC-W110L (antibody, V domains shown) VH: EVQLVQSGAEVKKPGATVKISCKVSGYSFTGHTMNWIRQPPGKGLEWIGLIKPSNGGTSYNQKFKGRVTISADKSISTAYLQWSSLKASDTAMYYCAHGHYESYFAMDYLGQGTLVTVSS VL: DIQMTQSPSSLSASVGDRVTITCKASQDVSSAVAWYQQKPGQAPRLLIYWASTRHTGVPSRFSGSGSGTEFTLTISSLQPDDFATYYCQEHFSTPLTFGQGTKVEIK", "MEASURED NUMBER": 0.924}
{"BINDER": "HC-Y101N (antibody, V domains shown) VH: EVQLVQSGAEVKKPGATVKISCKVSGYSFTGHTMNWIRQPPGKGLEWIGLIKPSNGGTSYNQKFKGRVTISADKSISTAYLQWSSLKASDTAMYYCAHGHNESYFAMDYWGQGTLVTVSS VL: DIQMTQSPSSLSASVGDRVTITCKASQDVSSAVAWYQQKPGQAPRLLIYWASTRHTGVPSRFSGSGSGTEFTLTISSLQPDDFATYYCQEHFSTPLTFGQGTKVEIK", "MEASURED NUMBER": 2.91}
{"BINDER": "LC-A034Q (antibody, V domains shown) VH: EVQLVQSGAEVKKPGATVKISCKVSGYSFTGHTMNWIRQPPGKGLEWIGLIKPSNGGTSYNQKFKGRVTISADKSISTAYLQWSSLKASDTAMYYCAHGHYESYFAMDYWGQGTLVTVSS VL: DIQMTQSPSSLSASVGDRVTITCKASQDVSSAVQWYQQKPGQAPRLLIYWASTRHTGVPSRFSGSGSGTEFTLTISSLQPDDFATYYCQEHFSTPLTFGQGTKVEIK", "MEASURED NUMBER": 1.41}
{"BINDER": "LC-F092D (antibody, V domains shown) VH: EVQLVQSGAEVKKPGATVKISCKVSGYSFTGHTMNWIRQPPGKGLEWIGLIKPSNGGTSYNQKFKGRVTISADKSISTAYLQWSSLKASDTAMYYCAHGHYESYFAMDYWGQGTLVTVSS VL: DIQMTQSPSSLSASVGDRVTITCKASQDVSSAVAWYQQKPGQAPRLLIYWASTRHTGVPSRFSGSGSGTEFTLTISSLQPDDFATYYCQEHDSTPLTFGQGTKVEIK", "MEASURED NUMBER": 2.94}
{"BINDER": "LC-H091V (antibody, V domains shown) VH: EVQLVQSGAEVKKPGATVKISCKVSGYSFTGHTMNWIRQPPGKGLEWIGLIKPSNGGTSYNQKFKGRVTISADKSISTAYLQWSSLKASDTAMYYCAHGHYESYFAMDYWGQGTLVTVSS VL: DIQMTQSPSSLSASVGDRVTITCKASQDVSSAVAWYQQKPGQAPRLLIYWASTRHTGVPSRFSGSGSGTEFTLTISSLQPDDFATYYCQEVFSTPLTFGQGTKVEIK", "MEASURED NUMBER": 1.17}
{"BINDER": "LC-A032M (antibody, V domains shown) VH: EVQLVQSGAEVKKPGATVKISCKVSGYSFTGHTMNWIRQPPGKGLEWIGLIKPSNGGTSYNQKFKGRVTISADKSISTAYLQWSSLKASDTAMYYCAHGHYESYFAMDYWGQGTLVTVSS VL: DIQMTQSPSSLSASVGDRVTITCKASQDVSSMVAWYQQKPGQAPRLLIYWASTRHTGVPSRFSGSGSGTEFTLTISSLQPDDFATYYCQEHFSTPLTFGQGTKVEIK", "MEASURED NUMBER": 2.92}
{"BINDER": "HC-E102L (antibody, V domains shown) VH: EVQLVQSGAEVKKPGATVKISCKVSGYSFTGHTMNWIRQPPGKGLEWIGLIKPSNGGTSYNQKFKGRVTISADKSISTAYLQWSSLKASDTAMYYCAHGHYLSYFAMDYWGQGTLVTVSS VL: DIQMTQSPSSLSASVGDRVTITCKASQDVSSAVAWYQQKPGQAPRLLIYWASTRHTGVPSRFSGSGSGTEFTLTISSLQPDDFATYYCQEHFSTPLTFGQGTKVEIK", "MEASURED NUMBER": 2.7}
